# System: HCC1599
# experimentalConditions: 72 h
endpointName: EC50, CellTiter-Blue viability (nM)

>  <molecule>
CO[C@@H]1[C@H](N(C)C(=O)c2ccccc2)C[C@H]2O[C@]1(C)n1c3ccccc3c3c4c(c5c6ccccc6n2c5c31)C(=O)NC4 [Midostaurin]

>  <outputUnit>
nM

>  <EC50, CellTiter-Blue viability>
617

$$$$

1. COc1ccc(S(=O)(=O)Nc2cccnc2Nc2ccc(O)cc2)cc1 [ABT-751]
2. Cc1cc(Nc2nc(N[C@@H](C)c3ncc(F)cn3)ncc2Cl)[nH]n1 [AZD1480]
Enquiry: Identify the entry with the smaller EC50, CellTiter-Blue viability: 1 or 2 . Indicate your choice by writing its label.
Return: 2
(2: 213 nM, 1: 1590 nM)

----------
Quick list: drug sensitivity score per entry.
# Tested on: CAL-51
# procedureSummary: drug sensitivity score (DSS), CellTiter-Blue viability (DSS (AUC-based score)); higher = stronger viability inhibition; extreme values may be limits of the assay
# experimentalConditions: incubation time: 72 h
Please reply with the number alone, leaving off any unit.

>  <compound>
CC(C)C[C@H](NC(=O)[C@@H](COC(C)(C)C)NC(=O)[C@H](Cc1ccc(O)cc1)NC(=O)[C@H](CO)NC(=O)[C@H](Cc1c[nH]c2ccccc12)NC(=O)[C@H](Cc1cnc[nH]1)NC(=O)[C@@H]1CCC(=O)N1)C(=O)N[C@@H](CCCNC(=N)N)C(=O)N1CCC[C@H]1C(=O)NNC(N)=O [Goserelin]

>  <drug sensitivity score>
0

$$$$
>  <compound>
CC[C@H](CO)Nc1nc(NCc2ccccc2)c2ncn(C(C)C)c2n1 [Roscovitine]

>  <drug sensitivity score>
0

$$$$
>  <compound>
CNC(=O)c1ccccc1Sc1ccc2c(/C=C/c3ccccn3)n[nH]c2c1 [Axitinib]

>  <drug sensitivity score>
6.1

$$$$
>  <compound>
CO[C@@]12[C@H](COC(N)=O)C3=C(C(=O)C(C)=C(N)C3=O)N1C[C@@H]1N[C@@H]12 [Mitomycin C]

>  <drug sensitivity score>
2.74

$$$$

Here is another compound to look at.
Enquiry: Requested field: drug sensitivity score. Item: Nc1ccn([C@@H]2O[C@H](CO)[C@@H](O)C2(F)F)c(=O)n1 [Gemcitabine]
Return: 17.6

----------
# Test system: DU-4475
# procedureSummary: drug sensitivity score (DSS), CellTox Green (DSS (AUC-based score)); higher = stronger drug effect (viability inhibition or cytotoxicity); extreme values may be limits of the assay
# experimentalConditions: incubation time: 72 h
Recorded drug sensitivity score values for a group of compounds are listed next.
Hey, just send me the number, nothing else.

>  <compound>
CC[C@H](CO)Nc1nc(NCc2ccccc2)c2ncn(C(C)C)c2n1

>  <drug sensitivity score>
0

$$$$
>  <compound>
CC(C)(C)c1nc(-c2cccc(NS(=O)(=O)c3c(F)cccc3F)c2F)c(-c2ccnc(N)n2)s1

>  <drug sensitivity score>
3.29

$$$$

Enquiry: Look up drug sensitivity score with DU-4475 for this compound: CCNC(=O)c1noc(-c2cc(C(C)C)c(O)cc2O)c1-c1ccc(CN2CCOCC2)cc1
Return: 5.69

Enquiry: Now consider CC(O)(CS(=O)(=O)c1ccc(F)cc1)C(=O)Nc1ccc(C#N)c(C(F)(F)F)c1 (stereo unspecified) [Bicalutamide] and answer again.
Return: 0

Enquiry: Subsequent entry: CCN(CC)CCCC(C)Nc1ccnc2cc(Cl)ccc12 (stereo unspecified)
Return: 1.64

Enquiry: # repeat for COc1ccc(S(=O)(=O)Nc2cccnc2Nc2ccc(O)cc2)cc1
Return: 0

----------
# Tested on: HCC1937
# procedureSummary: normalised response (% of control), CellTiter-Glo; higher = more viable cells (100 = DMSO, 0 = benzethonium chloride kill control)
# experimentalConditions: incubation time: 72 h
endpointName: normalised response (%)
# output: bare number, implied unit %

>  <compound>
Cc1cc(Nc2nc(N[C@@H](C)c3ncc(F)cn3)ncc2Cl)[nH]n1 [AZD1480] (1 nM)

>  <outputUnit>
%

>  <normalised response>
96.4

$$$$
>  <compound>
CC(=O)[C@]1(O)Cc2c(O)c3c(c(O)c2[C@@H](O[C@H]2C[C@H](N)[C@H](O)[C@H](C)O2)C1)C(=O)c1ccccc1C3=O [Idarubicin] (100 nM)

>  <outputUnit>
%

>  <normalised response>
98

$$$$
>  <compound>
CC(C)C[C@H](NC(=O)[C@@H](COC(C)(C)C)NC(=O)[C@H](Cc1ccc(O)cc1)NC(=O)[C@H](CO)NC(=O)[C@H](Cc1c[nH]c2ccccc12)NC(=O)[C@H](Cc1cnc[nH]1)NC(=O)[C@@H]1CCC(=O)N1)C(=O)N[C@@H](CCCNC(=N)N)C(=O)N1CCC[C@H]1C(=O)NNC(N)=O [Goserelin] (1000 nM)

>  <outputUnit>
%

>  <normalised response>
98.2

$$$$

Enquiry: Lab request: please report normalised response under test system HCC1937 for Cc1nc(C(=O)NCC(=O)O)c(O)c2ccc(Oc3ccccc3)cc12 [FG-4592] (1 nM)
Return: 102

Enquiry: Lookup C/C(=C\c1csc(C)n1)[C@@H]1C[C@@H]2O[C@]2(C)CCC[C@H](C)[C@H](O)[C@@H](C)C(=O)C(C)(C)[C@@H](O)CC(=O)N1 [Ixabepilone] (0.1 nM)
Return: 98

----------
drug sensitivity score: recorded values
# System: CAL-120
# procedureSummary: drug sensitivity score (DSS), CellTiter-Blue viability (DSS (AUC-based score)); higher = stronger viability inhibition; extreme values may be limits of the assay
# experimentalConditions: incubation time: 72 h
The response must contain the number and no unit.

Solved entries (count: 3):
>  <molecule>
Cn1cc(C2=C(c3cn(C4CCN(Cc5ccccn5)CC4)c4ccccc34)C(=O)NC2=O)c2ccccc21

>  <experimentalValue>
0

$$$$
>  <molecule>
CC1(C)CCC(c2ccc(Cl)cc2)=C(CN2CCN(c3ccc(C(=O)NS(=O)(=O)c4ccc(N[C@H](CCN5CCOCC5)CSc5ccccc5)c(S(=O)(=O)C(F)(F)F)c4)cc3)CC2)C1

>  <experimentalValue>
6.12

$$$$
>  <molecule>
CCN(CC)CCCC(C)Nc1ccnc2cc(Cl)ccc12 (stereo not drawn)

>  <experimentalValue>
0

$$$$

Enquiry: For the molecule shown here, CCNC(=O)c1noc(-c2cc(C(C)C)c(O)cc2O)c1-c1ccc(CN2CCOCC2)cc1 , give the reported drug sensitivity score.
Return: 21.3

Enquiry: Subsequent entry: CO[C@@H]1[C@H](N(C)C(=O)c2ccccc2)C[C@H]2O[C@]1(C)n1c3ccccc3c3c4c(c5c6ccccc6n2c5c31)C(=O)NC4
Return: 8.21

Enquiry: Likewise for CC(O)(CS(=O)(=O)c1ccc(F)cc1)C(=O)Nc1ccc(C#N)c(C(F)(F)F)c1 (stereo not drawn) [Bicalutamide] ?
Return: 0

Enquiry: Try CC(C)C[C@H](NC(=O)[C@@H](COC(C)(C)C)NC(=O)[C@H](Cc1ccc(O)cc1)NC(=O)[C@H](CO)NC(=O)[C@H](Cc1c[nH]c2ccccc12)NC(=O)[C@H](Cc1cnc[nH]1)NC(=O)[C@@H]1CCC(=O)N1)C(=O)N[C@@H](CCCNC(=N)N)C(=O)N1CCC[C@H]1C(=O)NNC(N)=O next.
Return: 0

Enquiry: Same read-out for CC(=O)[C@]1(O)Cc2c(O)c3c(c(O)c2[C@@H](O[C@H]2C[C@H](N)[C@H](O)[C@H](C)O2)C1)C(=O)c1ccccc1C3=O ?
Return: 14.5

----------
# Tested on: HCC1937
# procedureSummary: normalised viability (% of control), CellTiter-Blue; higher = more viable cells (about 100 = DMSO control)
# experimentalConditions: 100 nM; incubation time: 72 h
endpointName: normalised viability (%)
# value in %; strip the unit string

Some molecules with recorded normalised viability:
>  <molecule>
CNC(=O)c1ccccc1Sc1ccc2c(/C=C/c3ccccn3)n[nH]c2c1

>  <normalised viability [%]>
118

$$$$
>  <molecule>
CN(Cc1cnc2nc(N)nc(N)c2n1)c1ccc(C(=O)N[C@@H](CCC(=O)O)C(=O)O)cc1 [Methotrexate]

>  <normalised viability [%]>
96.2

$$$$

Enquiry: HCC1937 / normalised viability / CC(C)(C)NC(=O)[C@H]1CC[C@H]2[C@@H]3CC[C@H]4NC(=O)C=C[C@]4(C)[C@H]3CC[C@]12C [Finasteride] : value?
Return: 91

Enquiry: Same question, C=CCn1c(=O)c2cnc(Nc3ccc(N4CCN(C)CC4)cc3)nc2n1-c1cccc(C(C)(C)O)n1 this time
Return: 78.2

Enquiry: Moving on to the next molecule: Cn1cc(C2=C(c3cn(C4CCN(Cc5ccccn5)CC4)c4ccccc34)C(=O)NC2=O)c2ccccc21
Return: 86.2

----------
# Test system: HCC1143
# procedureSummary: drug sensitivity score (DSS), CellTiter-Glo (DSS (AUC-based score)); higher = stronger drug effect (viability inhibition or cytotoxicity); extreme values may be limits of the assay
# experimentalConditions: incubation time: 72 h
Each entry below carries its reported drug sensitivity score.
Write the value as a bare number.

The following molecules have reported results that may help.
>  <molecule>
CN(C)C(=N)NC(=N)N [Metformin]

>  <drug sensitivity score>
0

$$$$
>  <molecule>
COc1cc(Nc2c(C#N)cnc3cc(OCCCN4CCN(C)CC4)c(OC)cc23)c(Cl)cc1Cl [Bosutinib]

>  <drug sensitivity score>
3.67

$$$$
>  <molecule>
CN[C@@H](C)C(=O)N[C@H]1CN(C(=O)CC(C)C)CC[C@H]2CC[C@@H](C(=O)NC(c3ccccc3)c3ccccc3)N2C1=O [AT-406]

>  <drug sensitivity score>
0

$$$$
>  <molecule>
CCN(CC)CCCC(C)Nc1ccnc2cc(Cl)ccc12 (stereo not given) [Chloroquine]

>  <drug sensitivity score>
4.28

$$$$
>  <molecule>
COc1ccc(S(=O)(=O)Nc2cccnc2Nc2ccc(O)cc2)cc1 [ABT-751]

>  <drug sensitivity score>
6.19

$$$$

Now examine the next entry.
Enquiry: Value lookup for drug sensitivity score; key = CC(C)(C)c1nc(-c2cccc(NS(=O)(=O)c3c(F)cccc3F)c2F)c(-c2ccnc(N)n2)s1 [Dabrafenib]
Return: 0
